Biological target: DPPI (Homo sapiens, UniProt P53634)
Sequence (P53634 231-394 limits assumed): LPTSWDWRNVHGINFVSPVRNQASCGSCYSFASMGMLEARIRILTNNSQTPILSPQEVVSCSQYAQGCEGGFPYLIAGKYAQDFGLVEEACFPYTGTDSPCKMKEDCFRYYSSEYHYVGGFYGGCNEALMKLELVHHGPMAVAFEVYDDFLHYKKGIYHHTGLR
Sequence (P53634 25-134 limits assumed): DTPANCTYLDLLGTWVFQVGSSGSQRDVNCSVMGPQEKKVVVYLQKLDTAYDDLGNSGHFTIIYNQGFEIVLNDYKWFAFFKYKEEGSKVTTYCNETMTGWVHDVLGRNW
Sequence (P53634 395-463 limits assumed): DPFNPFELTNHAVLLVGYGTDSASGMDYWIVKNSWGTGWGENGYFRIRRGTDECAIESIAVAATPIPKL
Experiment: Substrate specificity of human DPPI: hydrolysis of synthetic peptide substrates
Format: biochemical
Parameters: Human DPPI is now established to constitute a 200,000 Da glycoprotein with 24,000 Da subunits; from tissue; host or cells: human cadaveric spleen; unit not given here
Details: substrate concentration 500 μM
*1 amine or outer side, *2 acyl side, *3 side chain or, on linkers, in order; H or OH if unused. Where a SMILES comes first, the peptide text is derived from it. The star is where a group is joined. pNA = O=[N+]([O-])c1ccc(N*)cc1; AMC = Cc1cc(=O)oc2cc(N*)ccc12; Suc = O=C(CCC(=O)[*:2])[*:1]; βNA = c1ccc2cc(N*)ccc2c1; Cbz = O=C(OCc1ccccc1)*
Value kind: hydrolysis of substrate peptide by human DPPI

What value of hydrolysis of substrate peptide by human DPPI has been recorded for this entry: N=C(N)NCCC[C@H](NC(=O)[C@@H](N)CCCNC(=N)N)C(=O)Nc1ccc2ccccc2c1 [Arg-Arg-βNA] (H-Arg-Arg-βNA) 0

What value of hydrolysis of substrate peptide by human DPPI has been recorded for this entry: COc1cc(NC(=O)[C@H](CCCN=C(N)N)NC(=O)[C@H](CC(C)C)NC(=O)[C@@H](NC(=O)OCc2ccccc2)C(C)C)cc2ccccc12 0

What value of hydrolysis of substrate peptide by human DPPI has been recorded for this entry: C[C@H](N)C(=O)N[C@@H](C)C(=O)Nc1ccc([N+](=O)[O-])cc1 [Ala-Ala-pNA] (H-Ala-Ala-pNA) 1000

What value of hydrolysis of substrate peptide by human DPPI has been recorded for this entry: Cc1cc(=O)oc2cc(NC(=O)C(CCCCN)NC(=O)OCc3ccccc3)ccc12 (centres unmarked) 0

What value of hydrolysis of substrate peptide by human DPPI has been recorded for this entry: NCC(=O)N1CCC[C@H]1C(=O)Nc1ccc2ccccc2c1 [Gly-Pro-βNA] (H-Gly-Pro-βNA) 0

What value of hydrolysis of substrate peptide by human DPPI has been recorded for this entry: N[C@@H](CO)C(=O)N[C@@H](Cc1ccc(O)cc1)C(=O)Nc1ccc2ccccc2c1 [Ser-Tyr-βNA] (H-Ser-Tyr-βNA) 2000

What value of hydrolysis of substrate peptide by human DPPI has been recorded for this entry: CC(C)C[C@H](N)C(=O)Nc1ccc2ccccc2c1 0

What value of hydrolysis of substrate peptide by human DPPI has been recorded for this entry: C[C@H](NC(=O)[C@@H](N)CC(=O)O)C(=O)Nc1ccc2ccccc2c1 [Asp-Ala-βNA] (H-Asp-Ala-βNA) 1000

What value of hydrolysis of substrate peptide by human DPPI has been recorded for this entry: O=C(NC(Cc1ccccc1)C(=O)Nc1ccc2ccccc2c1)OCc1ccccc1 (centres unmarked) 0

What value of hydrolysis of substrate peptide by human DPPI has been recorded for this entry: C[C@H](NC(=O)CCC(=O)O)C(=O)N[C@@H](C)C(=O)N1CCC[C@H]1C(=O)N[C@@H](Cc1ccccc1)C(=O)Nc1ccc([N+](=O)[O-])cc1 [Suc-Ala-Ala-Pro-Phe-pNA] (Suc-AAPF-pNA) 0

What value of hydrolysis of substrate peptide by human DPPI has been recorded for this entry: Cc1cc(=O)oc2cc(NC(=O)[C@H](Cc3ccccc3)NC(=O)CN)ccc12 [Gly-Phe-AMC] (H-Gly-Phe-{AMC}) 6120

What value of hydrolysis of substrate peptide by human DPPI has been recorded for this entry: O=C(Nc1ccc2ccccc2c1)[C@@H]1CCCN1 0

What value of hydrolysis of substrate peptide by human DPPI has been recorded for this entry: Cc1cc(=O)oc2cc(NC(=O)[C@H](CCCN=C(N)N)NC(=O)[C@@H]3CCCN3C(=O)CNC(=O)OCc3ccccc3)ccc12 [CBZ-Gly-Pro-Arg-AMC] (Cbz-Gly-Pro-Arg-{AMC}) 0

What value of hydrolysis of substrate peptide by human DPPI has been recorded for this entry: Cc1cc(=O)oc2cc(NC(=O)[C@H](CCCN=C(N)N)NC(=O)[C@H](Cc3ccccc3)NC(=O)[C@@H]3CCCN3)ccc12 [Pro-Phe-Arg-AMC] (H-Pro-Phe-Arg-{AMC}) 0
